Where these numbers come from: ChEMBL document CHEMBL4346709

Target: Dual specificity protein kinase TTK (Homo sapiens)
Test: Inhibition of TTK autophosphorylation in human CAL51 cells by radioimmuno-precipitation assay
Assay type: cell-based
Please respond with reported IC50 for every item in the list.

**Q:** Requested field: IC50. Item: COc1cc(N2CCN(C3COC3)CC2)ccc1Nc1nc(O[C@H]2CCOC(C)(C)C2)c2cc[nH]c2n1
**A:** 44 nM

**Q:** And the next one, COc1cc(N2CCN(C(=O)CO)CC2)ccc1Nc1nc(O[C@H]2CCOC(C)(C)C2)c2cc[nH]c2n1 ?
**A:** 16 nM

**Q:** And the next one, C[C@@H](Oc1cc(C(=O)N(C)C)ccc1Nc1nc(O[C@H]2CC[C@@](C)(O)CC2)c2c(Cl)c[nH]c2n1)C(F)(F)F ?
**A:** 9 nM

###

Molecular target: LRRK2 G2019S mutant (Homo sapiens, UniProt Q5S007, G2019S)
Sequence (Q5S007 whole entry G2019S, the tested form may be a part): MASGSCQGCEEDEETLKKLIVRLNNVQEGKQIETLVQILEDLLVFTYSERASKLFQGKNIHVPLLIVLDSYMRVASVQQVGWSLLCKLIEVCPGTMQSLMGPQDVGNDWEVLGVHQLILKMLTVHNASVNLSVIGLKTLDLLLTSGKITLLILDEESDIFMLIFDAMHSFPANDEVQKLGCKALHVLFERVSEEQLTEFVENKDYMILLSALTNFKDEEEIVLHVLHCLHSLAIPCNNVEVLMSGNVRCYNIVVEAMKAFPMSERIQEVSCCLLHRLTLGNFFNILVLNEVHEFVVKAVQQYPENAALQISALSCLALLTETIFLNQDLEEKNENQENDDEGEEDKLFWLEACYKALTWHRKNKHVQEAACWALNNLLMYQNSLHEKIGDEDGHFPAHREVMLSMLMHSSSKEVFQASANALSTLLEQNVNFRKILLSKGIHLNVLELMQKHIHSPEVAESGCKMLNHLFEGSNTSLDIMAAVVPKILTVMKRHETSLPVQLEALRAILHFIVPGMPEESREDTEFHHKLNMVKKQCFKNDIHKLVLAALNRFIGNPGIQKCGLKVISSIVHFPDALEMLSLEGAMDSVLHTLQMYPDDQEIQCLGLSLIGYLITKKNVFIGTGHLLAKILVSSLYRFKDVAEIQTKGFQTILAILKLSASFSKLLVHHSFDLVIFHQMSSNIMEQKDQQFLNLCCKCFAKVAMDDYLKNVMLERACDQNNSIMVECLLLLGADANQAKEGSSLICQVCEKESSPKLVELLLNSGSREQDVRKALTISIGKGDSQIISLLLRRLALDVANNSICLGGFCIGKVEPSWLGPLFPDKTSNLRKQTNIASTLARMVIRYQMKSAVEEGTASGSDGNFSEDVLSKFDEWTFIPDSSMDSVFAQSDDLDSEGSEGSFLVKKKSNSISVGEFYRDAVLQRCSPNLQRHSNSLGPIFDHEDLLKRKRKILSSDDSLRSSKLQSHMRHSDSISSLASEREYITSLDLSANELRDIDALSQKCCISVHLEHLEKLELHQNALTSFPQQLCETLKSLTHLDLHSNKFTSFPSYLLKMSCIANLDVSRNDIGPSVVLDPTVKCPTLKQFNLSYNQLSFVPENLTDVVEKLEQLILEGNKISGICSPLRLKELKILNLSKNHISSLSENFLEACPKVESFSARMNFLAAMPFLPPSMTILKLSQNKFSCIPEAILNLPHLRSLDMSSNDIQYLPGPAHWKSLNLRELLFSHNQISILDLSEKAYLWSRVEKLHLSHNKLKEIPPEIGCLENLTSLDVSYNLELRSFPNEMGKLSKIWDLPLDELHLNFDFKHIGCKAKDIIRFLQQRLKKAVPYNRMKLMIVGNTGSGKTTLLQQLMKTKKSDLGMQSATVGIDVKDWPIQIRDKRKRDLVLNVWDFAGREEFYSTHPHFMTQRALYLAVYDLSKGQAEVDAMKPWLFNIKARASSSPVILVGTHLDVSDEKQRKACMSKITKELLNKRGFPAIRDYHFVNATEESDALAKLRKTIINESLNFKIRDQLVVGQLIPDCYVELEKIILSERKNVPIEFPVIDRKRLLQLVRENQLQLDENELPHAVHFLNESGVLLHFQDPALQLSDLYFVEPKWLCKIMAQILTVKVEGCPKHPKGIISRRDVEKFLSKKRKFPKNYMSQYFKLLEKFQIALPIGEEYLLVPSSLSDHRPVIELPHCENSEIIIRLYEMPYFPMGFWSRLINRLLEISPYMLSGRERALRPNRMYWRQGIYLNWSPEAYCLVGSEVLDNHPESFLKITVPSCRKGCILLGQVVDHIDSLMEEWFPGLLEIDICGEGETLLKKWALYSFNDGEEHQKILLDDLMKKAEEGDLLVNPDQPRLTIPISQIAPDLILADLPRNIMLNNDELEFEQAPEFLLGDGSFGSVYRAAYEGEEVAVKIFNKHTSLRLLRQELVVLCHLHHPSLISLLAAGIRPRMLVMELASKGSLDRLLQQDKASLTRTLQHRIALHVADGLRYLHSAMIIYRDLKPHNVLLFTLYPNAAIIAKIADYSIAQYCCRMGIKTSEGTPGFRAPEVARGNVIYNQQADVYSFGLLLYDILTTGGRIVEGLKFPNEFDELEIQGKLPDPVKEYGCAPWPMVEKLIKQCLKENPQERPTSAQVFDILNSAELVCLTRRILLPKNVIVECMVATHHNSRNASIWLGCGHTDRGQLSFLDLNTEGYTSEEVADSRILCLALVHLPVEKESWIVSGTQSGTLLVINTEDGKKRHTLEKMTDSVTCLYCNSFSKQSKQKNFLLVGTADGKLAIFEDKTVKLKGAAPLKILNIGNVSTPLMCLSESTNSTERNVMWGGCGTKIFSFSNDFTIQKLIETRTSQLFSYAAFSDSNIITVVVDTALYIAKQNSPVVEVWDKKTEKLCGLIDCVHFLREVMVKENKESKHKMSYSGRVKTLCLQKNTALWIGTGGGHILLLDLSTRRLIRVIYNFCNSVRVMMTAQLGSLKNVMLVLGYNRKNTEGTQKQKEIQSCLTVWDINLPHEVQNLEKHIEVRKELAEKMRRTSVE
Test: Inhibition of recombinant human GST-tagged LRRK2 G2019S mutant catalytic domain (970 to 2527 residues) expressed in baculovirus expression system at 3 uM using LRRKtide as substrate measured after 1 hr by Alexa-fluor-647 ADP tracer-based ADAPTA assay relative to control
Settings: probe LRRKtide
metric-name: inhibition at 1 h, 3 µM

**Q:** Requested field: inhibition at 1 h, 3 µM. Item: C[C@@H](Oc1cc(C(=O)N(C)C)ccc1Nc1nc(O[C@H]2CC[C@@](C)(O)CC2)c2c(Cl)c[nH]c2n1)C(F)(F)F
**A:** > 80%

###

Assay: Oral bioavailability in CB17 SCID mouse at 30 mg/kg
Type: ADME, organism-based
Conditions: in vivo
metric-name: bioavailability (%)
Value expressed in %; do not type the unit.

**Q:** Requested field: bioavailability. Item: C[C@@H](Oc1cc(C(=O)N(C)C)ccc1Nc1nc(O[C@H]2CC[C@@](C)(O)CC2)c2c(Cl)c[nH]c2n1)C(F)(F)F
**A:** 60

###

Experiment: AUC in CB17 SCID mouse at 30 mg/kg, po
Format: ADME, organism-based
Conditions: in vivo
Please respond with reported AUC for every item in the list.
Value expressed in µM·h; do not type the unit.

**Q:** Requested field: AUC. Item: C[C@@H](Oc1cc(C(=O)N(C)C)ccc1Nc1nc(O[C@H]2CC[C@@](C)(O)CC2)c2c(Cl)c[nH]c2n1)C(F)(F)F
**A:** 22.5

**Q:** And the next one, COc1cc(N2CCN(C(=O)CO)CC2)ccc1Nc1nc(O[C@H]2CCOC(C)(C)C2)c2cc[nH]c2n1 ?
**A:** 17.6

**Q:** And the next one, COc1cc(N2CCN(C3COC3)CC2)ccc1Nc1nc(O[C@H]2CCOC(C)(C)C2)c2cc[nH]c2n1 ?
**A:** 35.3

###

Target: Leucine-rich repeat serine/threonine-protein kinase 2 (Homo sapiens, UniProt Q5S007)
Sequence (Q5S007 whole entry, the tested form may be a part): as the sequence (Q5S007 whole entry G2019S, the tested form may be a part) above, with S2019G counted along it
Experiment: Inhibition of recombinant human GST-tagged LRRK2 catalytic domain (970 to 2527 residues) expressed in baculovirus expression system using LRRKtide as substrate measured after 1 hr by Alexa fluor-647 ADP tracer-based ADAPTA assay
metric-name: IC50 (pM)
Value expressed in pM; do not type the unit.

**Q:** # returns recorded IC50 (system: Leucine-rich repeat serine/threonine-protein kinase 2 (Homo sapiens, UniProt Q5S007)) for C[C@@H](Oc1cc(C(=O)N(C)C)ccc1Nc1nc(O[C@H]2CC[C@@](C)(O)CC2)c2c(Cl)c[nH]c2n1)C(F)(F)F
**A:** 1

###

Target: Dual specificity protein kinase TTK (Homo sapiens, UniProt P33981)
Sequence (P33981 whole entry): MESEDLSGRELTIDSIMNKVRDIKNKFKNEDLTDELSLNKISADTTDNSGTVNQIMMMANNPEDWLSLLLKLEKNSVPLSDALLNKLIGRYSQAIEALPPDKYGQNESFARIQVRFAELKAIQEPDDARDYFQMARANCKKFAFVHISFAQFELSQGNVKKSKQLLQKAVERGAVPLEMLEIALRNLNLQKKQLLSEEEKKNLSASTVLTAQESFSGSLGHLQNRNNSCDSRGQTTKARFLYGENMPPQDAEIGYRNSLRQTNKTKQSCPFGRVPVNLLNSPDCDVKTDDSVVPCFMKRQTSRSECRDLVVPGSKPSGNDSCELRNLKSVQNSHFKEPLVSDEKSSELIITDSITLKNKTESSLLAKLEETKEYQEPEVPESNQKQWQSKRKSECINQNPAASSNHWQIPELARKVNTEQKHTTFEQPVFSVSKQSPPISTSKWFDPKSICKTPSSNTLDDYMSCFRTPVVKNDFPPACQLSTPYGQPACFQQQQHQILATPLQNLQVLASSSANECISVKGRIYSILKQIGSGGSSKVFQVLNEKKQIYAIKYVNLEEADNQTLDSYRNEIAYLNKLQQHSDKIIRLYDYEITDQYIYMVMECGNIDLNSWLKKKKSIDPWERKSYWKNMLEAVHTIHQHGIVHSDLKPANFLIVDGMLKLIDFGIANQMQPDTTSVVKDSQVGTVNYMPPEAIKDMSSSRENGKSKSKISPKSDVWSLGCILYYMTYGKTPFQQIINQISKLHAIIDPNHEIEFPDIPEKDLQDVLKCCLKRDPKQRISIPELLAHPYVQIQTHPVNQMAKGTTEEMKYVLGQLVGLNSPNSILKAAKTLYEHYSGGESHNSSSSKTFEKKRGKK
Assay: Inhibition of Kinase Tracer 236 binding to recombinant human full-length GST-tagged TTk expressed in baculovirus expression system measured after 1 hr by LanthaScreen Eu--kinase binding assay
metric-name: IC50 (nM)
Value expressed in nM; do not type the unit.

**Q:** Requested field: IC50. Item: COc1cc(N2CCN(C3COC3)CC2)ccc1Nc1nc(O[C@H]2CCOC(C)(C)C2)c2cc[nH]c2n1
**A:** 2.5

**Q:** And the next one, COc1cc(N2CCN(C(=O)CO)CC2)ccc1Nc1nc(O[C@H]2CCOC(C)(C)C2)c2cc[nH]c2n1 ?
**A:** 1.3

**Q:** And the next one, COc1cc(C(=O)N(C)C)ccc1Nc1nc(O[C@H]2CC[C@@](C)(O)CC2)c2cc[nH]c2n1 ?
**A:** 0.7

**Q:** And the next one, COc1cc(C(=O)N(C)C)ccc1Nc1nc(O[C@H]2CCOC(C)(C)C2)c2cc[nH]c2n1 ?
**A:** 1

**Q:** And the next one, COc1cc(C(=O)N(C)C)ccc1Nc1nc(OC(C)C)c2cc[nH]c2n1 ?
**A:** 3.2

**Q:** And the next one, COc1cc(C(=O)N(C)C)ccc1Nc1nc(OC2CCCC2)c2cc[nH]c2n1 ?
**A:** 1.3

**Q:** And the next one, COc1cc(C(=O)N(C)C)ccc1Nc1nc(O[C@H]2CC[C@](C)(O)CC2)c2cc[nH]c2n1 ?
**A:** 0.6

**Q:** And the next one, COc1cc(C(=O)N(C)C)ccc1Nc1nc(OC2CCOCC2)c2cc[nH]c2n1 ?
**A:** 1

**Q:** And the next one, COc1cc(C(=O)N(C)C)ccc1Nc1nc(OC2COC2)c2cc[nH]c2n1 ?
**A:** 7.2

**Q:** And the next one, COc1cc(C(=O)N(C)C)ccc1Nc1nc(OC2CCCCC2)c2cc[nH]c2n1 ?
**A:** 1.3

**Q:** And the next one, C[C@@H](Oc1cc(C(=O)N(C)C)ccc1Nc1nc(O[C@H]2CC[C@@](C)(O)CC2)c2c(Cl)c[nH]c2n1)C(F)(F)F ?
**A:** 0.7

###

Biological target: Mitogen-activated protein kinase 10 (Homo sapiens, UniProt P53779)
Sequence (P53779 whole entry): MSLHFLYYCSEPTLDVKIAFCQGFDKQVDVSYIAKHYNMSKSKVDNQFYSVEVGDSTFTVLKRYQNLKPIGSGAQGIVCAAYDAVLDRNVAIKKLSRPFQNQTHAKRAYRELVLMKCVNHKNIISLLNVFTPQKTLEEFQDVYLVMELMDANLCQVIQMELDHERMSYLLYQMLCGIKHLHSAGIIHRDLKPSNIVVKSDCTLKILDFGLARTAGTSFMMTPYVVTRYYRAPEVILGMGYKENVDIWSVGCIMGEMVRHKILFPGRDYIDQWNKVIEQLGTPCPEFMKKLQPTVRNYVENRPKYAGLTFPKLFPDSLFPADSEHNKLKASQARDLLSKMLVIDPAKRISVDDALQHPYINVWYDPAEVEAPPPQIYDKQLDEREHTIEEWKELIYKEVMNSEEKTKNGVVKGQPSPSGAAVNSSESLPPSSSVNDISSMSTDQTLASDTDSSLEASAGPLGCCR
Experiment: Inhibition of recombinant human full length N-terminal GST-tagged JNK3 expressed in baculovirus expression system by Z'-LYTE assay
metric-name: pIC50
A value of pIC50 is the negative decimal logarithm of a concentration given in moles per litre.

**Q:** # returns recorded pIC50 (system: Mitogen-activated protein kinase 10 (Homo sapiens, UniProt P53779)) for C[C@@H](Oc1cc(C(=O)N(C)C)ccc1Nc1nc(O[C@H]2CC[C@@](C)(O)CC2)c2c(Cl)c[nH]c2n1)C(F)(F)F
**A:** 9.97
